Data origin: patent US20250018014A1

Molecular target: FL_Reg1 (full-length human Regnase-1) phosphorylation by IKKβ (Homo sapiens)
Construct: made in house; host or cells: Expi293 cells
Sequence (Q5D1E8 whole entry): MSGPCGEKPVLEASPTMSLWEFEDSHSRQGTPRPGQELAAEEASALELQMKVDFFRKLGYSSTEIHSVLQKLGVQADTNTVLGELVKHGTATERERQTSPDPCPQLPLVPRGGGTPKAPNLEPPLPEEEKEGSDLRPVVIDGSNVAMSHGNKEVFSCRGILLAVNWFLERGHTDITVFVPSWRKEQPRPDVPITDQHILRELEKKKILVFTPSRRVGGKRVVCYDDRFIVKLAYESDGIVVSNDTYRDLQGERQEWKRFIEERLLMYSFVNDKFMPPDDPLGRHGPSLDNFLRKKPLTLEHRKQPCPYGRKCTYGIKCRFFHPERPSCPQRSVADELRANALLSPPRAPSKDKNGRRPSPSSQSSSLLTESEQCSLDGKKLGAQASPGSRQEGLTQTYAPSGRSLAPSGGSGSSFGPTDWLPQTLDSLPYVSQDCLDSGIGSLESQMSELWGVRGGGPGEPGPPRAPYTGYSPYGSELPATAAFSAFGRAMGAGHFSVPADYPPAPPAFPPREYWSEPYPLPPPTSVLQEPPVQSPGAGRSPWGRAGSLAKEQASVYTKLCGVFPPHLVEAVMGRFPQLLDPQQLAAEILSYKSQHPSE
Test: Regnase-1 phosphorylation inhibition by compounds (AlphaScreen), IKKβ, full-length Regnase-1
Format: biochemical
Conditions: Table 14; phosphorylation by IKKβ; read-out: Phosphorylation inhibition FL_Reg1, 50% inhibition concentration (IKKβ)
Residues, ends and D or L forms follow the SMILES beside them.
measurement-label: IC50 (µM)
Give bare numbers, in µM.

| compound | unit-descriptor | IC50 |
| --- | --- | --- |
| CC(C)[C@@H]1NC(=O)[C@H](Cc2c[nH]c3ccccc23)NC(=O)[C@H](CCCCN)NC(=O)[C@H](Cc2c[nH]c3ccccc23)NC(=O)[C@H](CCC(N)=O)NC(=O)[C@H](CCCNC(=N)N)NC(=O)[C@H](Cc2ccccc2)NC(=O)[C@H](CCCNC(=N)N)NC(=O)[C@H](C)N(C)C(=O)C[C@@H](C(=O)N2CCCC2)NC(=O)[C@@H]2CCCN2C(=O)[C@H](Cc2ccc(O)cc2)NC1=O [PP13] (HELM PEPTIDE1{[meA].R.F.R.Q.W.K.W.V.Y.P.D.[C1CCN([*:1])C1]}$PEPTIDE1,PEPTIDE1,1:R1-12:R3$$$V2.0) | µM | 3.6 |

Consider the record given below.
Return IC50 for the following compound: CC[C@H](C)[C@@H]1NC(=O)[C@H](CCCCN)NC(=O)[C@H](Cc2ccc(O)cc2)NC(=O)[C@H](Cc2c[nH]c3ccccc23)NC(=O)[C@H](CO)NC(=O)[C@H](CO)NC(=O)[C@H]([C@@H](C)O)NC(=O)[C@@H]2CCCN2C(=O)[C@@H](C)N(C)C(=O)C[C@@H](C(=O)N2CCCC2)NC(=O)[C@H](Cc2c[nH]c3ccccc23)NC1=O [PP23] (HELM PEPTIDE1{[C[C@H](C(=O)[*:2])N(C)[*:1]].P.T.S.S.W.Y.K.I.W.D.[C1CCN([*:1])C1]}$PEPTIDE1,PEPTIDE1,1:R1-11:R3$$$V2.0)
25.6
